experiment: Stability of cannabinoid and Vitamin E components of Beverage 2 (AB Red) stored at 8° C. and 21-25° C., LCMSMS over 570 days; settings: 8° C., 540 days
Output class 1 for Stability of Cannabinoids in AB Red not less than 1 µg/mL; output class 0 otherwise.

compound="CCCCCc1cc2c(c(O)c1C(=O)O)[C@@H]1C=C(C)CC[C@H]1C(C)(C)O2 [D9 THCA, delta-9-tetrahydrocannabinolic acid]" assigned_label="class 1"
compound="CCCc1cc(O)c2c(c1)OC(C)(C)[C@@H]1CCC(C)=C[C@@H]21 [THCV, delta-9-tetrahydrocannabivarin]" assigned_label="class 1"
compound="CCCCCc1cc(O)c2c(c1)OC1(C)CCC3C1C2C3(C)C (stereo not drawn) [CBL, cannabicyclol]" assigned_label="class 0"
compound="CCCCCc1cc(O)c(C/C=C(\\C)CCC=C(C)C)c(O)c1 [CBG, cannabigerol]" assigned_label="class 1"
compound="CCCCCc1cc(O)c2c(c1)OC(C)(CCC=C(C)C)C=C2 (stereo not drawn) [CBC, cannabichromene]" assigned_label="class 0"
compound="C=C(C)[C@@H]1CCC(C)=C[C@H]1c1c(O)cc(CCC)cc1O [CBDV, cannabidivarin]" assigned_label="class 0"
compound="C=C(C)[C@@H]1CCC(C)=C[C@H]1c1c(O)cc(CCCCC)c(C(=O)O)c1O [CBDA, cannabidiolic acid]" assigned_label="class 1"
compound="CCCCCc1cc(O)c2c(c1)OC(C)(C)c1ccc(C)cc1-2 [CBN, cannabinol]" assigned_label="class 1"
compound="CCCCCc1cc(O)c2c(c1)OC(C)(C)[C@@H]1CCC(C)=C[C@@H]21 [D9 THC, delta-9-tetrahydrocannabinol, reference compound]" assigned_label="class 1"

====

format: physicochemical; conditions: stored at room temperature (21-25° C.), day 240
Criterion: Stability in Powder Concentrate (content by LCMSMS) strictly less than 0.4 mg/g powder. Met: yes (1). Not met: no (0).

compound="C=C(C)[C@@H]1CCC(C)=C[C@H]1c1c(O)cc(CCCCC)cc1O [CBD, cannabidiol, reference compound]" assigned_label="no (0)"
compound="CCCCCc1cc2c(c(O)c1C(=O)O)[C@@H]1C=C(C)CC[C@H]1C(C)(C)O2 [D9 THCA, delta-9-tetrahydrocannabinolic acid]" assigned_label="yes (1)"
compound=Cc1c(C)c2c(c(C)c1O)CC[C@@](C)(CCC[C@H](C)CCC[C@H](C)CCCC(C)C)O2 assigned_label="no (0)"
compound="CCCCCc1cc(O)c2c(c1)OC(C)(CCC=C(C)C)C=C2 (stereo not shown)" assigned_label="yes (1)"
compound=CCCCCc1cc(O)c(C/C=C(\C)CCC=C(C)C)c(O)c1 assigned_label="no (0)"
compound="CCCc1cc(O)c2c(c1)OC(C)(C)[C@@H]1CCC(C)=C[C@@H]21 [THCV, delta-9-tetrahydrocannabivarin]" assigned_label="no (0)"
compound=C=C(C)[C@@H]1CCC(C)=C[C@H]1c1c(O)cc(CCCCC)c(C(=O)O)c1O assigned_label="no (0)"

====

assay: Stability of cannabinoid and Vitamin E components of Beverage 1 (AB White) stored at 8° C. and 21-25° C., LCMSMS over 570 days; assay type: physicochemical; settings: beverage stored at 21-25° C., day 16
Examples of molecules with documented Stability in AB White, 21-25° C. (content by LCMSMS) follow.
Assay metric: Stability in AB White, 21-25° C. (content by LCMSMS)

molecule="CCCCCc1cc(O)c(C/C=C(\\C)CCC=C(C)C)c(O)c1 [CBG, cannabigerol]" measured_value="4.80 µg/mL"
molecule="CCCCCc1cc(O)c2c(c1)OC(C)(C)[C@@H]1CCC(C)=C[C@@H]21 [D9 THC, delta-9-tetrahydrocannabinol, reference compound]" measured_value="12.1 µg/mL"
molecule="CCCc1cc(O)c2c(c1)OC(C)(C)[C@@H]1CCC(C)=C[C@@H]21 [THCV, delta-9-tetrahydrocannabivarin]" measured_value="3.60 µg/mL"
molecule="C=C(C)[C@@H]1CCC(C)=C[C@H]1c1c(O)cc(CCCCC)c(C(=O)O)c1O [CBDA, cannabidiolic acid]" measured_value="1.75 µg/mL"
molecule="CCCCCc1cc2c(c(O)c1C(=O)O)[C@@H]1C=C(C)CC[C@H]1C(C)(C)O2 [D9 THCA, delta-9-tetrahydrocannabinolic acid]" measured_value="0.921 µg/mL"
molecule="CCCCCc1cc(O)c2c(c1)OC(C)(CCC=C(C)C)C=C2 (stereo not drawn) [CBC, cannabichromene]" measured_value="0.321 µg/mL"
molecule="CCCCCc1cc(O)c2c(c1)OC(C)(C)c1ccc(C)cc1-2 [CBN, cannabinol]" measured_value="2.75 µg/mL"
molecule="C=C(C)[C@@H]1CCC(C)=C[C@H]1c1c(O)cc(CCC)cc1O [CBDV, cannabidivarin]" measured_value="0.145 µg/mL"
molecule="CCCCCc1cc(O)c2c(c1)OC1(C)CCC3C1C2C3(C)C (stereo not drawn) [CBL, cannabicyclol]" measured_value="0.537 µg/mL"

src = patent US20240415914A1
